Reported pIC50 values follow for various compounds
System: A549
Test: In vitro inhibition test for cancer cell proliferation (MTT), A549
Assay type: cell-based
Details: 24 h or 48 h after addition, unit inferred
// pIC50: -log10(molar conc.)

Briefly, pIC50 measured for `C[n+]1cn(C2CC2)c2c1/C(=N/O)c1ccccc1C2=O` : 5.76

Briefly, pIC50 measured for `Cn1c[n+](C)c2c1C(=O)c1ccccc1C2=NOCc1c(F)c(F)c(F)c(F)c1F` : 7.30

Briefly, pIC50 measured for `CC(C)ON=C1c2ccccc2C(=O)c2c1[n+](C)cn2C.[I-]` : 7.05

Briefly, pIC50 measured for `C[n+]1cn(Cc2ccccc2F)c2c1/C(=N/O)c1ccccc1C2=O` : 6.24

Briefly, pIC50 measured for `CON=C1c2ccccc2C(=O)c2c1[n+](C)cn2C.[I-]` : 8.15

Briefly, pIC50 measured for `Cn1c[n+](C)c2c1C(=O)c1ccccc1C2=NOCc1ccc([N+](=O)[O-])cc1` : 7.30

Briefly, pIC50 measured for `CC[n+]1cn(C)c2c1C(=NOC)c1ccccc1C2=O` : 6.23

Briefly, pIC50 measured for Cn1c[n+](C)c2c1C(=O)c1ccccc1C2=NOCc1ccccc1 [Compound 139] : 8.30

Measured values drawn from patent US20250163002A1 for this set.
